Molecular target: Serine/threonine-protein kinase B-raf (Homo sapiens, UniProt P15056)
Sequence (P15056 whole entry): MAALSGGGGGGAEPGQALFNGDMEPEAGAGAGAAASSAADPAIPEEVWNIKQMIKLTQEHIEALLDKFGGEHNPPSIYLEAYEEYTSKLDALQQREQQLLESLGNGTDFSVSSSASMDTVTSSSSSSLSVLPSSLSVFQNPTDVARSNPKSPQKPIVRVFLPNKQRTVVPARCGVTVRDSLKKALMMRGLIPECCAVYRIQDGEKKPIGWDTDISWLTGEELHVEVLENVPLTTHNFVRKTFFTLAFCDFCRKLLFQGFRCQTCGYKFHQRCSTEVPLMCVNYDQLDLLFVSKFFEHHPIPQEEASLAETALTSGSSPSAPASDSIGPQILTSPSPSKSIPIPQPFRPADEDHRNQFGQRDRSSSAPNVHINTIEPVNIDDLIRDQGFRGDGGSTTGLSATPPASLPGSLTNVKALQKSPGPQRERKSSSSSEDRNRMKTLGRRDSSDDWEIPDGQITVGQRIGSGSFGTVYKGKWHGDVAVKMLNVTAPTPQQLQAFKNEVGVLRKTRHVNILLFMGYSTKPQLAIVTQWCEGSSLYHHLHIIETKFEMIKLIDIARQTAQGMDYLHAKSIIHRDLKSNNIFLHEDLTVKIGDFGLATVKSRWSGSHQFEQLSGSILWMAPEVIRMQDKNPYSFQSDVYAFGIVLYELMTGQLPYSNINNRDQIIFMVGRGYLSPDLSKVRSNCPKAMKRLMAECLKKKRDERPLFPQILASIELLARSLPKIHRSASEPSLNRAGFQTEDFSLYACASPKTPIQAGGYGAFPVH
Experiment: Inhibition of human BRAF using MEK1 as substrate by […] assay
Provide the reported pIC50 of each item.
Please report pIC50 as the negative decimal logarithm of the molar concentration, giving only the number.

Give its pIC50 value. Item: O=S(=O)(NCCCNc1nccc(-c2c(-c3cccc(F)c3)nc3sccn23)n1)c1ccc(C(F)(F)F)cc1 7.20

Give its pIC50 value. Item: O=C(NCCNc1nccc(-c2c(-c3cccc(F)c3)nc3sccn23)n1)c1ccccc1 6.79

Give its pIC50 value. Item: O=S(=O)(NCCCNc1nccc(-c2c(-c3cccc(F)c3)nc3sccn23)n1)c1ccc(Br)cc1 7.64

Give its pIC50 value. Item: O=S(=O)(NCCNc1nccc(-c2c(-c3cccc(F)c3)nc3sccn23)n1)c1ccc(C(F)(F)F)cc1 7.07

Give its pIC50 value. Item: O=S(=O)(NCCCNc1nccc(-c2c(-c3cccc(F)c3)nc3sccn23)n1)c1ccc(Cl)cc1 7.30

Give its pIC50 value. Item: O=C(NCCNc1nccc(-c2c(-c3cccc(F)c3)nc3sccn23)n1)c1c(F)cccc1F 7.02

Give its pIC50 value. Item: COc1ccc(S(=O)(=O)NCCCNc2nccc(-c3c(-c4cccc(F)c4)nc4sccn34)n2)cc1 7.26

Give its pIC50 value. Item: O=C(NCCNc1nccc(-c2c(-c3cccc(F)c3)nc3sccn23)n1)c1ccc(Cl)cc1 6.98

Give its pIC50 value. Item: Cc1ccc(S(=O)(=O)NCCCNc2nccc(-c3c(-c4cccc(F)c4)nc4sccn34)n2)cc1 6.74
